Answer each item with its documented melting point.

For every item below, please supply its melting point.
1. CCOC(=O)CCc1cc(O)nn1CC(C)C
2. CC(=O)Nc1cc(Cl)c([N+](=O)[O-])cc1NC(C)=O
3. O=C(O)COc1c(Br)cc(C(=O)c2c(Cc3ccccc3)oc3ccccc23)cc1Br
4. COc1cccc(-n2ncc(C(=O)O)c2C(N)=O)c1
5. COc1cc2c(cc1OC)CN(CCCCc1ccc(NC(=O)c3cccc4c(=O)cc(-c5ccccc5)[nH]c34)cc1)CC2

1: 102 to 103 °C; 2: 232 °C; 3: 165 to 167 °C; 4: 213 to 216 °C; 5: 204 °C

For every item below, please supply its melting point.
1. CC(C)(C)OC(=O)CN1C(=O)[C@@H](N2C(=O)c3ccccc3C2=O)CSc2ccccc21
2. CNC(=O)Cc1cc(=O)oc2cc(OCc3cccc(Cl)c3)ccc12
3. CCCCN1CCC(CCC(=O)c2cc(Cl)c(N)nc2OC)CC1
4. Cc1ncoc1C(O)c1ccc(F)cc1 (stereo not drawn)

1. 181 to 184 °C
2. 174 to 175 °C
3. 86 to 87 °C
4. 102 to 104 °C

For every item below, please supply its melting point.
1. CCCc1nc(Nc2cccc(N(C)C)c2)nc(NC2CCN(S(C)(=O)=O)CC2)n1
2. O=C(O)c1cc([N+](=O)[O-])ccc1C(=O)c1ccccc1
3. O=C(CCl)Nc1ccc2c(c1NC(=O)c1ccccc1C(F)(F)F)C(=O)c1ccccc1C2=O
4. CNC(=S)C1(c2cccnc2)CCCCC1=O (stereo not drawn)

1: 134 to 136 °C; 2: 176 to 179 °C; 3: 248 to 250 °C; 4: 188 to 190 °C
